Catalogue of speed of sound values
details: 325.15 K; 101.33 kPa; Liquid; Sing-around technique in a fixed-path interferometer
Give the value, in units of m/s, as a plain number.

Worked examples follow.
CCCC[n+]1ccn(C2CCCC2)c1.O=S(=O)([N-]S(=O)(=O)C(F)(F)F)C(F)(F)F; 1207.6
CCCCn1cc[n+](CCC(C)C)c1.O=S(=O)([N-]S(=O)(=O)C(F)(F)F)C(F)(F)F; 1156.2
CCCCC[n+]1ccn(CCCC)c1.O=S(=O)([N-]S(=O)(=O)C(F)(F)F)C(F)(F)F; 1153.1

Now, please, on to the next molecule.
Identify the reported speed of sound for the following entry. "CCCCn1cc[n+](C(CC)CC)c1.O=S(=O)([N-]S(=O)(=O)C(F)(F)F)C(F)(F)F" 1151

###

details: 335.15 K; 101.33 kPa; Liquid; Vibrating tube method
Numbers after ± are expanded uncertainties.
The following compounds are shown together with reported mass density values.
Give your result as the value with the unit written after it.

Below, 3 compounds whose answers are already recorded.
CCCCn1cc[n+](C(CC)CC)c1.O=S(=O)([N-]S(=O)(=O)C(F)(F)F)C(F)(F)F; 1287 ± 9 kg/m3
CCCCn1cc[n+](CCC(C)C)c1.O=S(=O)([N-]S(=O)(=O)C(F)(F)F)C(F)(F)F; 1285.6 ± 9 kg/m3
CCCCC[n+]1ccn(CCCC)c1.O=S(=O)([N-]S(=O)(=O)C(F)(F)F)C(F)(F)F; 1284.8 ± 9 kg/m3

Query compound follows.
Fill in mass density for record "CCCC[n+]1ccn(C2CCCC2)c1.O=S(=O)([N-]S(=O)(=O)C(F)(F)F)C(F)(F)F" 1341.3 ± 9.8 kg/m3

###

details: 287.15 K; 101.33 kPa; Liquid; Vibrating tube method
mass density listing for selected molecules.
Hi! Could you send only the number? It should be in kg/m3, unit omitted.

CCCCn1cc[n+](C(CC)CC)c1.O=S(=O)([N-]S(=O)(=O)C(F)(F)F)C(F)(F)F; 1329.4
CCCCn1cc[n+](CCC(C)C)c1.O=S(=O)([N-]S(=O)(=O)C(F)(F)F)C(F)(F)F; 1328.1

Given the molecule "CCCCC[n+]1ccn(CCCC)c1.O=S(=O)([N-]S(=O)(=O)C(F)(F)F)C(F)(F)F" , write its reported mass density. 1327.3

Determine from records and report mass density for "CCCC[n+]1ccn(C2CCCC2)c1.O=S(=O)([N-]S(=O)(=O)C(F)(F)F)C(F)(F)F" 1384.9

###

test: molar heat capacity at constant pressure; settings: 315.15 K; 101.33 kPa; Liquid; DSC
List of molar heat capacity at constant pressure values.
Supply the numeric figure in J/K/mol, leaving out any unit text.

For orientation, consider the following solved cases.
CCCC[n+]1ccn(C2CCCC2)c1.O=S(=O)([N-]S(=O)(=O)C(F)(F)F)C(F)(F)F; 664.73
CCCCn1cc[n+](CCC(C)C)c1.O=S(=O)([N-]S(=O)(=O)C(F)(F)F)C(F)(F)F; 698.23

Supply reported molar heat capacity at constant pressure belonging to this compound: "CCCCn1cc[n+](C(CC)CC)c1.O=S(=O)([N-]S(=O)(=O)C(F)(F)F)C(F)(F)F" 709.45

Find the measured molar heat capacity at constant pressure of "CCCCC[n+]1ccn(CCCC)c1.O=S(=O)([N-]S(=O)(=O)C(F)(F)F)C(F)(F)F" and report it. 699.42

Origin of measurements: the NIST ThermoML archive (doi:10.1016/j.fluid.2017.03.021)
